# TARGET OF ASSAY: isolated recombinant JAK1 kinase domain (Homo sapiens (Human))
# ASSAY OVERVIEW: JAK1 enzyme assay (Caliper LabChip, peptide phosphorylation)
# Type: biochemical
# CONDITION DESCRIPTION: isolated recombinant JAK1 kinase domain, 25 μM ATP
Hi there, I'd appreciate the recorded pKi for every entry that follows.
Numbers only, as −log10 of the molar value.

Report pKi for each item below.
1. COC(=O)CNCCn1cc(NC(=O)c2cnn3cccnc23)c(-c2cc(Cl)ccc2OC(F)F)n1
2. CC(C)CN1CCC2(CCN(C(=O)Cn3cc(NC(=O)c4cnn5cccnc45)c(-c4cc(Cl)ccc4OC(F)F)n3)CC2)C1
3. O=C(Nc1cn(CC(=O)N2CCC[C@H]2CO)nc1-c1cc(Cl)ccc1OC(F)F)c1cnn2cccnc12
4. CCCN1CCN(C(=O)Cn2cc(NC(=O)c3cnn4cccnc34)c(-c3cc(Cl)ccc3OC(F)F)n2)CC1
5. O=C(Nc1cn(C/C=C/CN2CCOCC2)nc1-c1cc(Cl)ccc1OC(F)F)c1cnn2cccnc12

Result string:
[8.97, 9.41, 9.31, 9.30, 9.06]

Report pKi for each item below.
1. Nc1nn2cccnc2c1C(=O)Nc1cn(CC(=O)N2CCOCC2)nc1-c1cc(Cl)ccc1OC(F)F
2. CN1C[C@@H]2[C@H](C1)[C@H](CO)N(C(=O)Cn1cc(NC(=O)c3cnn4cccnc34)c(-c3cc(Cl)ccc3OC(F)F)n1)[C@@H]2c1ccccc1

Result string:
9.62
8.96

---

# TARGET OF ASSAY: isolated recombinant JAK2 kinase domain (Homo sapiens (Human), UniProt O60674)
# Sequence (O60674 849-1124): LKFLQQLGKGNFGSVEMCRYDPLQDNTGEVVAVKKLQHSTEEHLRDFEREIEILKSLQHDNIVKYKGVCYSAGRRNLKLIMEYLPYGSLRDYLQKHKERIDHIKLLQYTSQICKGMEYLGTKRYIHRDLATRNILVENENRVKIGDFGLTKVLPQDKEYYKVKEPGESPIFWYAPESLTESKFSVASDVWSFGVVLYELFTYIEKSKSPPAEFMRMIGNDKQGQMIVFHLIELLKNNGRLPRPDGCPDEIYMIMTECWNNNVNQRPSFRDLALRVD
# ASSAY OVERVIEW: JAK2 enzyme assay (Caliper LabChip, peptide phosphorylation)
# CONDITION DESCRIPTION: 25 μM ATP
Where a name gives a salt, the structure may show the parent alone.
Binary label based on Ki with cut-off 1 nM: below gives Fulfilled, not below gives Not fulfilled.

1. CN1CCN(c2nc(-c3cc(Cl)ccc3OC(F)F)c(NC(=O)c3cnn4cccnc34)s2)CC1 [Example 205]: Fulfilled
2. COCCN(C)C1CCN(C(=O)Cn2cc(NC(=O)c3cnn4cccnc34)c(-c3cc(Cl)ccc3OC(F)F)n2)CC1 [Example 68]: Not fulfilled
3. CN(CC1(C)COC1)C1CCN(C(=O)Cn2cc(NC(=O)c3cnn4cccnc34)c(-c3cc(Cl)ccc3OC(F)F)n2)CC1 [Example 96]: Not fulfilled

Query string: Consider O=C(Nc1cn(CC(=O)N2CCN(Cc3ncco3)CC2)nc1-c1cc(Cl)ccc1OC(F)F)c1cnn2cccnc12 [Example 380] . Does its Ki lie strictly below 1 nM?
Result string: Fulfilled

Query string: Consider CCOC(=O)C1(C)CCN(CCN2CCN(C(=O)Cn3cc(NC(=O)c4cnn5cccnc45)c(-c4cc(Cl)ccc4OC(F)F)n3)CC2)CC1 [Example 337, formate] . Does its Ki lie strictly below 1 nM?
Result string: Not fulfilled

---

# TARGET OF ASSAY: isolated recombinant JAK1 kinase domain (Homo sapiens (Human))
# ASSAY OVERVIEW: JAK1 enzyme assay (Caliper LabChip, peptide phosphorylation)
# Assay type: biochemical
# CONDITION DESCRIPTION: isolated recombinant JAK1 kinase domain, 25 μM ATP
Hi there, I'd appreciate the recorded pKi for every entry that follows.
Give bare numbers, as −log10 of the molar value.

Some compounds with known pKi results, for comparison:
1. CN(CCCC#N)C1CCN(C(=O)Cn2cc(NC(=O)c3cnn4cccnc34)c(-c3cc(Cl)ccc3OC(F)F)n2)CC1: 9.31
2. CN(C)C[C@H]1CCCN(C(=O)Cn2cc(NC(=O)c3cnn4cccnc34)c(-c3cc(Cl)ccc3OC(F)F)n2)C1: 8.97
3. CN1CCC2(CC1)CCN(C(=O)Cn1cc(NC(=O)c3cnn4cccnc34)c(-c3cc(Cl)ccc3OC(F)F)n1)C2: 9.27

Query string: Form field: reported pKi of `CN(CC(F)(F)F)C1CCN(C(=O)Cn2cc(NC(=O)c3cnn4cccnc34)c(-c3cc(Cl)ccc3OC(F)F)n2)CC1`
Result string: 9.40

---

# TARGET OF ASSAY: isolated recombinant JAK1 kinase domain (Homo sapiens (Human), UniProt P23458)
# Sequence (P23458 875-1153): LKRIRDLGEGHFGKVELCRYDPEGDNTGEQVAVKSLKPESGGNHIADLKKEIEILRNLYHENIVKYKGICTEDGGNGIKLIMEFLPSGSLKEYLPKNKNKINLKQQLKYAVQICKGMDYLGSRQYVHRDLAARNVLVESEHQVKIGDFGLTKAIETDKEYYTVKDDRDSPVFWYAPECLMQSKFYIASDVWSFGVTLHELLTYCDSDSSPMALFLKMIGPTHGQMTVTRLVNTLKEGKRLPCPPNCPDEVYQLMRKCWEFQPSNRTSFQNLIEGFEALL
# ASSAY OVERVIEW: JAK1 enzyme assay (Caliper LabChip, peptide phosphorylation)
# Format: biochemical
# CONDITION DESCRIPTION: isolated recombinant JAK1 kinase domain, 25 μM ATP
Hi there, I'd appreciate the recorded pKi for every entry that follows.
One number for each entry, as −log10 of the molar value.

Some molecules with known pKi results, for comparison:
1) CN(C)C1CCN(C(=O)c2nc(-c3cc(Cl)ccc3OC(F)F)c(NC(=O)c3cnn4cccnc34)s2)CC1 [Example 265]: 8.44
2) C[C@@H](Cn1cc(NC(=O)c2cnn3cccnc23)c(-c2cc(Cl)ccc2OC(F)F)n1)N(C)C [Example 370]: 8.86
3) N#CCCN1CCN(C(=O)Cn2cc(NC(=O)c3cnn4cccnc34)c(-c3cc(Cl)ccc3OC(F)F)n2)CC1 [Example 406]: 9.34
4) CN(Cc1ccc2ccccc2c1)C1CCN(C(=O)Cn2cc(NC(=O)c3cnn4cccnc34)c(-c3cc(Cl)ccc3OC(F)F)n2)CC1 [Example 130]: 8.96
5) NC1CCC(=CCn2cc(NC(=O)c3cnn4cccnc34)c(-c3cc(Cl)ccc3OC(F)F)n2)CC1 (stereo not shown) [Example 422]: 9.05

Report pKi for each item below.
1. CN(CC1(CC#N)CC1)C1CCN(C(=O)Cn2cc(NC(=O)c3cnn4cccnc34)c(-c3cc(Cl)ccc3OC(F)F)n2)CC1 [Example 435]
2. O=C(Nc1cn(CC(=O)N2CCN(CCN3CCSCC3)CC2)nc1-c1cc(Cl)ccc1OC(F)F)c1cnn2cccnc12 [Example 460]

Result string:
[9.47, 9.41]

---

# Tested on: JAK1-dependent STAT6 phosphorylation downstream of IL-13 stimulation in BEAS-2B human bronchial epithelial cells
# ASSAY OVERVIEW: JAK1 pathway assay in BEAS-2B cells (IL-13-pSTAT6, MSD)
# Assay type: cell-based
# CONDITION DESCRIPTION: read-out: IL13-pSTAT6 EC50 (uM)_BEAS-2B
Where a name gives a salt, the structure may show the parent alone.
Binary label based on EC50 with cut-off 0.02 µM: below gives y, not below gives n.

Worked cases, answers included:
1. O=C1CC(N2CCN(C(=O)Cn3cc(NC(=O)c4cnn5cccnc45)c(-c4cc(Cl)ccc4OC(F)F)n3)CC2)CCO1 (stereo not drawn): n
2. O=C(Nc1cn(CC(=O)N2CCN(CCN3CCOCC3)CC2)nc1-c1cc(Cl)ccc1OC(F)F)c1cnn2cccnc12: y
3. CC(C)(C)OC(=O)N1CC[C@@H](n2cc(NC(=O)c3cnn4cccnc34)c(-c3cc(Cl)ccc3OC(F)F)n2)[C@H](O)C1 (single isomer, unassigned): n

Query string: Consider `O=C(Nc1cn(CCNCc2ccc(O)cc2)nc1-c1cc(Cl)ccc1OC(F)F)c1cnn2cccnc12` . Does its EC50 lie strictly below 0.02 µM?
Result string: y

Query string: Consider `CC(=O)N1CCC(N2CCC(n3cc(NC(=O)c4c(N)nn5cccnc45)c(-c4cc(Cl)ccc4OC(F)F)n3)CC2)CC1` . Does its EC50 lie strictly below 0.02 µM?
Result string: n

Query string: Consider CSc1ccc(CNCCn2cc(NC(=O)c3cnn4cccnc34)c(-c3cc(Cl)ccc3OC(F)F)n2)cc1 [Example 346, formate] . Does its EC50 lie strictly below 0.02 µM?
Result string: n

Query string: Consider `C[N+](C)(CCCc1ccccc1)C1CCN(C(=O)Cn2cc(NC(=O)c3cnn4cccnc34)c(-c3cc(Cl)ccc3OC(F)F)n2)CC1` . Does its EC50 lie strictly below 0.02 µM?
Result string: n

Query string: Consider `O=C(Nc1cn(CC(=O)N2CCN(CC3CCOCC3)CC2)nc1-c1cc(Cl)ccc1OC(F)F)c1cnn2cccnc12` . Does its EC50 lie strictly below 0.02 µM?
Result string: y

---

# TARGET OF ASSAY: isolated recombinant JAK1 kinase domain (Homo sapiens (Human), UniProt P23458)
# ASSAY OVERVIEW: JAK1 enzyme assay (Caliper LabChip, peptide phosphorylation)
# Format: biochemical
# CONDITION DESCRIPTION: isolated recombinant JAK1 kinase domain, 25 μM ATP
Structures can show the parent of a compound that is named as a salt.
Hi there, I'd appreciate the recorded pKi for every entry that follows.
Give bare numbers, as −log10 of the molar value.

Some molecules with known pKi results, for comparison:
1. CN1CCN(CCCN2CCC(n3cc(NC(=O)c4c(N)nn5cccnc45)c(-c4cc(Cl)ccc4OC(F)F)n3)CC2)C1=O: 9.36
2. CS(=O)(=O)CCN1C[C@@H]2CN(C(=O)Cn3cc(NC(=O)c4cnn5cccnc45)c(-c4cc(Cl)ccc4OC(F)F)n3)C[C@@H]2C1: 9.43

Report pKi for each item below.
1. COCCN1CCN(C(=O)Cn2cc(NC(=O)c3cnn4cccnc34)c(-c3cc(Cl)ccc3OC(F)F)n2)CC1
2. CNC(=O)CCCN1CCC(n2cc(NC(=O)c3c(N)nn4cccnc34)c(-c3cc(Cl)ccc3OC(F)F)n2)CC1
3. O=C(Nc1cn(CC(=O)N2C[C@@H]3CN(C(=O)OCCCO)C[C@@H]3C2)nc1-c1cc(Cl)ccc1OC(F)F)c1cnn2cccnc12
4. COC(=O)C1(C)CCN(CCN2CCN(C(=O)Cn3cc(NC(=O)c4cnn5cccnc45)c(-c4cc(Cl)ccc4OC(F)F)n3)CC2)CC1 [Example 335, formate]
5. CN1CCN(CC2CCN(C(=O)Cn3cc(NC(=O)c4cnn5cccnc45)c(-c4cc(Cl)ccc4OC(F)F)n3)CC2)CC1
6. CN(C)C[C@@H]1CCCN(C(=O)Cn2cc(NC(=O)c3c(N)nn4cccnc34)c(-c3cc(Cl)ccc3OC(F)F)n2)C1
7. CN(C)C1CCN(C(=O)Cn2cc(NC(=O)c3cnn4cccnc34)c(-c3cc(Cl)ccc3OC(F)F)n2)C1 (centres unmarked)

Result string:
1: 9.42; 2: 9.09; 3: 9.28; 4: 9.08; 5: 9.37; 6: 8.93; 7: 9.27

Report pKi for each item below.
1. Nc1nn2cccnc2c1C(=O)Nc1cn(CC(=O)N2CCN(CCO)CC2)nc1-c1cc(Cl)ccc1OC(F)F
2. CN1CC2(CCN(C(=O)Cn3cc(NC(=O)c4cnn5cccnc45)c(-c4cc(Cl)ccc4OC(F)F)n3)C2)C1
3. CN(CC(F)(F)c1ccccc1)C1CCN(C(=O)Cn2cc(NC(=O)c3cnn4cccnc34)c(-c3cc(Cl)ccc3OC(F)F)n2)CC1
4. CN1CCC(COC(=O)C2CCN(C(=O)Cn3cc(NC(=O)c4cnn5cccnc45)c(-c4cc(Cl)ccc4OC(F)F)n3)CC2)CC1
5. CN(C)C1CCN(C(=O)c2ccc(-c3nc(-c4cc(Cl)ccc4OC(F)F)c(NC(=O)c4cnn5cccnc45)s3)cc2)CC1 [Example 253, hydrochloride]
6. CN1CCN(C(=O)Cn2cc(NC(=O)c3cnn4cccnc34)c(-c3cc(Cl)ccc3OC(F)F)n2)C[C@H]1CO
7. CN(C)CC(=O)Cn1cc(NC(=O)c2cnn3cccnc23)c(-c2cc(Cl)ccc2OC(F)F)n1

Result string:
1: 9.31; 2: 9.04; 3: 9.21; 4: 9.29; 5: 9.25; 6: 9.24; 7: 8.77

Query string: Form field: reported pKi of `N=C(N)CCn1cc(NC(=O)c2cnn3cccnc23)c(-c2cc(Cl)ccc2OC(F)F)n1`
Result string: 9.11
